Target: cdk2/cyclinE (Homo sapiens)
Test: cdk2/cyclinE kinase assay
Conditions: 32P incorporation into retinoblastoma, 25° C., 15 minutes; read-out: Cdk2E IC50
recordedEndpoint: pIC50
A value of pIC50 is the negative decimal logarithm of a concentration given in moles per litre.

Guide cases for pIC50, answers given:
COc1ccc2cnc(Nc3ccc(N4CCN(C(C)=O)CC4)cc3)nc2c1C(C)C; 6.05
COc1ccc2cnc(Nc3ccc(N4CCC(NC(=O)OC(C)(C)C)C4)cc3)nc2c1C1CCCC1 (centres unmarked); 5.16
COc1ccc2cnc(Nc3ccc(N4CCOCC4)cc3)nc2c1C1CCCC1; 6.19
COc1ccc2cnc(Nc3ccc(N4CCCCC4)c(F)c3)nc2c1C1CCCC1; 5.10

# context switch: different molecule, same pIC50
INPUT: Return pIC50 (reported value) for this molecule: CC(C)c1c(O)ccc2cnc(Nc3ccccc3)nc12
OUTPUT: 6.26

====

Target: cdc2/cyclinB (Homo sapiens, UniProt P06493)
Sequence (P06493 whole entry, species assumed): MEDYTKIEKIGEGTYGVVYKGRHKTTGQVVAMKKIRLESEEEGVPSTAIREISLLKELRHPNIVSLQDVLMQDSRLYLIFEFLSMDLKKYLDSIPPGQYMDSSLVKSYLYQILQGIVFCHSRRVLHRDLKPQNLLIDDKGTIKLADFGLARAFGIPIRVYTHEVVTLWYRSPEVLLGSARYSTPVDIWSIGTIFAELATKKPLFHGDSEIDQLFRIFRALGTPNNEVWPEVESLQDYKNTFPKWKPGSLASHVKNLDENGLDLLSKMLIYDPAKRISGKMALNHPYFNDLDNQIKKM
Sequence (P14635 whole entry partner, species assumed): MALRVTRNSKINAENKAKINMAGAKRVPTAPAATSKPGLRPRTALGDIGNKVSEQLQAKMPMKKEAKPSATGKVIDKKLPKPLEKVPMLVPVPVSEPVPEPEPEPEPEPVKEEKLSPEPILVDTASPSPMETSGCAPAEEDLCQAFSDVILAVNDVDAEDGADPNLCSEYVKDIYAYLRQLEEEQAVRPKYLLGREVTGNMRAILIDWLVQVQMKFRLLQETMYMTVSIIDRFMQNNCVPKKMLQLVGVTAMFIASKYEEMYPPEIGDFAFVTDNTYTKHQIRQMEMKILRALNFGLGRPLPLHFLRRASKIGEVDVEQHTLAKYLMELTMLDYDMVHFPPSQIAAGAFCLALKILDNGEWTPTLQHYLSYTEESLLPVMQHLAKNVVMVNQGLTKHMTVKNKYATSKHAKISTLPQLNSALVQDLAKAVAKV
Assay: cdc2/cyclinB kinase assay (Table 1, CdkB)
Format: biochemical
Details: 32P incorporation into retinoblastoma, 25° C., 15 minutes
Protocol: All components except the ATP were added to the wells, and the plate was placed on a plate mixer for 2 minutes. The reaction was begun by addition of [^32P]ATP, and the plate was incubated at 25° C. for 15 minutes. The reaction was terminated by addition of 0.1 mL of 20% TCA. […] The wells were then washed five times with 0.2 mL of 10% TCA and ^32P incorporation determined with a beta plate counter (Wallac Inc., Gaithersburg, Md.).
recordedEndpoint: IC50 (µM)
Answer format: numeric, µM implied, no suffix.

COc1ccc2cnc(Nc3ccc(N4CCN(C(=O)CN)CC4)cc3)nc2c1C(C)C; 0.8
COc1ccc2cnc(Nc3ccccc3)nc2c1C(C)C; 1.04
COc1ccc2cnc(Nc3ccc(N4CCN(C(=O)CN)CC4)cc3)nc2c1C1CCCC1; 0.27
COc1ccc2cnc(Nc3ccc(N4CCOCC4)c(F)c3)nc2c1C(C)C; 1.23
COc1ccc2cnc(Nc3ccc(N4CCNCC4)cc3)nc2c1C(C)C; 0.506

INPUT: Return IC50 (reported value) for this molecule: COc1ccc2cnc(Nc3ccc(N4CCN(C(=O)OC(C)(C)C)CC4)cc3)nc2c1C(C)C
OUTPUT: 10.2

INPUT: Return IC50 (reported value) for this molecule: COc1ccc2cnc(Nc3ccc(N4CCNCC4)c(F)c3)nc2c1C1CCCC1
OUTPUT: 0.214

INPUT: Return IC50 (reported value) for this molecule: COc1ccc2cnc(Nc3ccc(N4CCC(N)C4)cc3)nc2c1C1CCCC1 (stereo not shown)
OUTPUT: 0.398

INPUT: Return IC50 (reported value) for this molecule: COc1ccc2cnc(Nc3ccc(N4CCN(C(=O)C(N)CC(C)C)CC4)cc3)nc2c1C1CCCC1 (stereo not shown)
OUTPUT: 0.333

INPUT: Return IC50 (reported value) for this molecule: COc1ccc2cnc(Nc3ccc(F)c(C)c3)nc2c1C(C)C
OUTPUT: 1.2

====

recordedEndpoint: melting point

Guide cases for melting point, answers given:
COc1ccc2cnc(Nc3ccc(N4CCCCC4)cc3)nc2c1C(C)C; 166 to 167 °C
COc1ccc2cnc(Nc3ccc(F)c(C)c3)nc2c1C(C)C; 169 to 171 °C
COc1ccc2cnc(Nc3ccc(N4CCOCC4)c(F)c3)nc2c1C1CCCC1; 252 to 253 °C
COc1ccc2cnc(Nc3ccc(F)c(C)c3)nc2c1C1CCCC1; 208 to 209 °C
COc1ccc2cnc(Nc3ccc(N4CCN(C(=O)CN)CC4)cc3)nc2c1C(C)C; 183 to 185 °C
COc1ccc2cnc(Nc3ccc(N4CCNCC4)c(F)c3)nc2c1C1CCCC1; 228 to 229 °C
COc1ccc2cnc(Nc3ccccc3)nc2c1C1CCCC1; 187 to 188 °C
COc1ccc2cnc(Nc3ccc(N4CCC(N)C4)cc3)nc2c1C1CCCC1 (stereo not drawn); 220 to 221 °C
COc1ccc2cnc(Nc3ccc(N4CCN(C(=O)OC(C)(C)C)CC4)cc3)nc2c1C1CCCC1; 183 to 184 °C
COc1ccc2cnc(Nc3ccc(N4CCCC4)cc3)nc2c1C(C)C; 188 to 190 °C

INPUT: Return melting point (reported value) for this compound: COc1ccc2cnc(Nc3ccc(N4CCN(C(=O)OC(C)(C)C)CC4)cc3)nc2c1C(C)C
OUTPUT: 173 to 175 °C

INPUT: Return melting point (reported value) for this compound: COc1ccc2cnc(Nc3ccc(N4CCOCC4)c(F)c3)nc2c1C(C)C
OUTPUT: 202 to 203 °C

INPUT: Return melting point (reported value) for this compound: COc1ccc2cnc(Nc3ccc(N4CCOCC4)cc3)nc2c1C1CCCC1
OUTPUT: 243 to 244 °C

INPUT: Return melting point (reported value) for this compound: COc1ccc2cnc(Nc3ccc(N4CCC(NC(=O)OC(C)(C)C)C4)cc3)nc2c1C1CCCC1 (stereo not drawn)
OUTPUT: 157 °C (dec.)

INPUT: Return melting point (reported value) for this compound: COc1ccc2cnc(Nc3ccc(N4CCN(C(=O)CN)CC4)cc3)nc2c1C1CCCC1
OUTPUT: 202 °C

INPUT: Return melting point (reported value) for this compound: CC(C)c1c(O)ccc2cnc(Nc3ccccc3)nc12
OUTPUT: 103 to 104 °C

INPUT: Return melting point (reported value) for this compound: COc1ccc2cnc(Nc3ccc(N4CCCCC4)cc3)nc2c1C1CCCC1
OUTPUT: 212 to 214 °C

INPUT: Return melting point (reported value) for this compound: COc1ccc2cnc(Nc3ccc(N4CCN(C(C)=O)CC4)cc3)nc2c1C1CCCC1
OUTPUT: 247 to 249 °C

This collection of values is drawn from patent US6982260B1.
